Read-out: HGF (gene 3082)
protocolNotes: LTEA_HepaRG_HGF: Life Technologies and Expression Analysis (LTEA) Assay for Hepatocyte Growth Facto (HGF) using HepaRG (AID 2283505)
protocolConditions: mRNA level, 48 h; actives raise or lower the signal
Calls of active or inactive are those of the source. The calls were made as follows: active = hit-call score of the fitted dose curve at least 0.9, where 1 is the maximum; inactive = score below 0.9.
Labels: active, inactive

| entrySmiles | labelClass |
| --- | --- |
| O=C1O[C@H]([C@@H](O)CO)C(O)=C1O | inactive |
| CCCCCCCCOC(=O)c1cc(O)c(O)c(O)c1 | inactive |
| C[C@]12CC[C@@H]3c4ccc(O)cc4CC[C@H]3[C@@H]1CCC2=O | inactive |
| CC[C@@H]1C[C@H](N(Cc2cc(C(F)(F)F)cc(C(F)(F)F)c2)C(C)=O)c2cc(C(F)(F)F)ccc2N1C(=O)OC(C)C | inactive |
| Cc1cc2c(cc1C(F)(F)F)N(C(=O)Nc1ccc(Oc3cccnc3C)nc1)CC2 | inactive |
| CCCCCCCCCCCC[N+](C)(C)C | active |
| Cc1cn([C@H]2C[C@H](N=[N+]=[N-])[C@@H](CO)O2)c(=O)[nH]c1=O | inactive |
| O=C(O)c1ccccc1-n1cc(C(=O)O)c(=O)c2cc(Nc3c(F)cc(F)cc3Cl)c(Cl)cc21 | inactive |
| CCCCCCCCCCCCO | inactive |
| Oc1ccc2ccccc2c1 | inactive |
| CC(C)(c1cc(Br)c(O)c(Br)c1)c1cc(Br)c(O)c(Br)c1 | inactive |
